- MEASUREMENT TARGET: SpSla1-D1-D2
- TEST DETAILS: SPOT peptide array binding signal intensity (averaged, normalized) (arbitrary units (background-subtracted, floor 0; scale differs between SH3 domains)); higher = stronger binding of the SH3 domain to the peptide
Listed here are binders together with their documented SPOT peptide array binding signal intensity.
READOUT LABEL: SPOT peptide array binding signal intensity

1) RPKRRAPPPVPKKPS ... 1490
2) RRASLFPRDPKRLRP ... ≤ 0
3) KWVRRPKLMTPLTFS ... 1.5
4) IKKRNKIRLPSGSPE ... 1.5
5) SPLGAPPPPPHKDHL ... 1
6) DGNEEKPLLPTRPNK ... ≤ 0
7) PVLPPPRSPNRPTLS ... ≤ 0
